Origin of values: ChEMBL document CHEMBL6134841

assay: Competitive inhibition of bacterial TPL assessed as decrease in phenol production incubated for 3 mins in presence of PLP/L-Tyr by LC-MS analysis; parameters: species or system Bacteria
Rule: measured Ki below 40 µM gets Condition met; anything equal to or greater than 40 µM gets Condition not met.

Answered examples (5):
MOLECULE	ASSIGNED CATEGORY
O=C(O)c1ccc(O)c(O)c1	Condition not met
N[C@@H](Cc1ccc(O)cn1)C(=O)O	Condition not met
O=C(O)c1cccc(O)c1 [3-HYDROXYBENZOIC ACID]	Condition met
O=C(O)c1cc(O)cc(O)c1 [3,5-DIHYDROXYBENZOIC ACID]	Condition met
O=C(O)c1cc(O)c(O)c(O)c1	Condition not met

Now let's try a different one.
Below 40 µM on Ki? Entry `COc1ccc(C(=O)O)cc1O`
Condition not met

---

test system: Morganella morganii; test: Inhibition of recombinant Morganella morganii JCM1672 TPL extracted from Escherichia coli BL21(DE3) assessed as decrease in phenol production incubated for 3 mins in presence of PLP/L-Tyr by LC-MS analysis
The source made the active and inactive calls. The rule behind the calls is not given here.
Output constraint: value belongs to TRUE = active, FALSE = inactive

COMPOUND	ASSIGNED CATEGORY
Oc1cccc(O)c1O	FALSE
O=C(O[C@@H]1Cc2c(O)cc(O)cc2O[C@@H]1c1ccc(O)c(O)c1)c1cc(O)c(O)c(O)c1	TRUE
O=C(O)c1ccc(O)c(O)c1	TRUE
O=C(O)c1cc(O)c(O)c(O)c1	TRUE
O=C(O)c1cccc(O)c1 [3-HYDROXYBENZOIC ACID]	TRUE

Okay, next one:
Write down the call the test reported for this compound. Item: `O=C(O)c1ccc(O)cc1`
FALSE

---

test system: Morganella morganii; test: Inhibition of recombinant Morganella morganii JCM1672 TPL extracted from Escherichia coli BL21(DE3) assessed as decrease in phenol production incubated for 3 mins in presence of PLP/L-Tyr by LC-MS analysis
Active and inactive are the calls of the source. The rule behind the calls is not given here.
Would you mind answering with one of these outcomes? active, inactive

# count of solved cases: 3
MOLECULE	ASSIGNED CATEGORY
O=C(O[C@@H]1Cc2c(O)cc(O)cc2O[C@@H]1c1cc(O)c(O)c(O)c1)c1cc(O)c(O)c(O)c1	active
O=C(O)Cc1ccc(O)c(O)c1	inactive
O=C(O)c1cc(O)cc(O)c1 [3,5-DIHYDROXYBENZOIC ACID]	active

Tell me the assay call for `Oc1ccccc1O` please.
inactive

Tell me the assay call for `O=C(O)c1ccc(O)nc1` please.
inactive

How was `Oc1cccc(O)c1` classified in this test?
inactive

How did this test come out for `O=C(O)c1cccnc1` ?
inactive

Write down the call the test reported for this molecule. Item: `COc1ccc(C(=O)O)cc1OC`
inactive

Kindly provide the recorded test outcome for the following molecule: `COc1ccc(C(=O)O)cc1O`
active

Just curious, what result did `O=C(O)c1cncc(O)c1` get here?
active

Can you look up the reported call for `O=C(O)c1ccccc1` for me?
inactive

Field: outcome | Entry: `COc1cc(C(=O)O)ccc1O`
inactive
